Test: In vivo pharmacokinetics, plasma LC-MS/MS
Conditions: male, CD-1, mouse, plasma, po, 20 mg/kg, PO; 0.5 hours; read-out: Plasma concentration (PO)
metric_name: concentration at 0.5 h (ng/mL)
Answers are plain numbers, in ng/mL.

Documented concentration at 0.5 h of O=S(=O)(NCc1ccc2c(c1)OCO2)c1ccc(Cc2ccc(S(=O)(=O)NCc3ccc4c(c3)OCO4)cc2)cc1 : 35.8

----------
Test: In vivo pharmacokinetics, plasma LC-MS/MS
Conditions: male, CD-1, mouse, in vivo, iv, 5 mg/kg, IV; 8 hours; read-out: Plasma concentration (IV)
Experimental: Pharmacokinetic and cytochrome P450 inhibition studies. Studies were performed with the assistance of Touchstone Biosciences (Plymouth Meeting, Pennsylvania). For pharmacokinetic bioanalysis, male CD-1 mice were fasted overnight before being dosed with M1i-124 via oral gavage (20mg/kg), intraperitoneal injection in the lower right quadrant of the abdomen (20 mg/kg), or intravenous tail vein injection (5 mg/kg). […] The plasma concentration of the compound was determined using LC-MS/MS analysis. […]
metric_name: concentration at 8 h
Answer format: value, then unit.

Record summary for O=S(=O)(NCc1ccc2c(c1)OCO2)c1ccc(Cc2ccc(S(=O)(=O)NCc3ccc4c(c3)OCO4)cc2)cc1 [M1i-124] : reported concentration at 8 h = 10.9 ng/mL

All figures here come from paper PMC11996864.
